Data origin: patent US20210292393A1

- assayed-system: SARS-CoV-2 full length spike protein, V367F mutant, expressed on CHO cells (SARS-CoV-2), P0DTC2
- details: remark: other sources report otherwise
observation-type: median fluorescence intensity, fold over isotype control (fold over isotype)
Just the number.

Some binders with known median fluorescence intensity, fold over isotype control (fold over isotype) results, for comparison:
>>> recorded_measurement("antibody 493 (antibody, V domains shown) VH: EVQLVESGGGLIQPGRSLRLSCAASGFTVSITYMSWVRQAPGKGLEWVSLIYSGGSSYYADSVKGRFTISRDNSKNTLYLQMNSLRAEDTAVYYCATTMVRGVIISYYYGMDVWGQGTTVTVSS VL: QSALTQPASVSGSPGQSITISCTGTSSDVGGYNYVSWYQQHPGKAPKLMIYEVSNRPSGVSNRFSGSKSGNTASLTISGLQAEDEADYYCSSYTSSSTLVFGGGTKLTVL")
4.82
>>> recorded_measurement("antibody 464 (antibody, V domains shown) VH: QVQLVQSGAEVKKPGASVKVSCKVSGYTLTELSMHWVRQAPGKGLEWMGGFDPEDGETIYAQKFQGRVTMTEDTSTDTAYMELSSLRSEDTAVYYCATARAFGVANWFDPWGQGTLVTVSS VL: QSVLTQPPSASGTPGQRVTISCSGSSSNIGSNYVYWYQQLPGTAPKLLIYRNNQRPSGVPDRFSGSKSGTSASLAISGLRSEDEADYYCAAWDDSLSGLYVFGTGTKVTVL")
1.04
>>> recorded_measurement("antibody 472 (antibody, V domains shown) VH: EVQLVESGGGLIQPGGSLRLSCAASGFTVSSNYMSWVRQAPGKGLEWVSVIYSGGTTHYADSVKGRFTISRDNSKNTLYLQMNSLRAEDTAVYYCANYGMDVWGQGTTVTVSS VL: SYELTQPSSVSVSPGQTARITCSGDVLAKKYARWFQQKPGQAPVLVIYKDSERPSGIPERFSGSSSGTTVTLTISGAQVEDEADYYCYSAADKVFGGGTKLTVL")
3.19
>>> recorded_measurement("antibody 495 (antibody, V domains shown) VH: QITLKESGPTLVKPTQTLTLTCTFSGFSLSTSGVGVGWIRQPPGKALEWLALIYWDDDKRYSPSLKSRLTITKDTSKNQVVLIMTNMDPVDTATYYCAHRDSSSWFDLDAFDIWGQGTMVIVSS VL: QSVLTQPPSVSEAPRQRVTISCSGSSSNIGNNAVNWYQQLPGKAPKLLIYYDDLLPSGVSDRFSGSKSGTSASLAISGLQSEDEADYYCAAWDDRLNGPVFGGGTKLTVL")
3.82
>>> recorded_measurement("antibody 499 (antibody, V domains shown) VH: EVQLVESGGGLVKPGGSLRLSCAASGFTFSSYSMNWVRQAPGKGLEWVSSISSSSSYIYYADSVKGRFTISRDNAKNSLYLQMNSLRAEDTAVYYCARAPAGIVVGPDYWGQGTLVTVSS VL: NFMLTQPHSVSESPGKTVTISCTGSSGSIASNYVQWYQQRPGSAPTTVIFEDNQRPSGVPDRFSGSIDSSSNSASLTISGLKTEDEADYYCQSYHSSNPHVVFGGGTKLTVL")
1.18

Could you now consider this next binder?
# median fluorescence intensity, fold over isotype control (fold over isotype) lookup, item antibody 490 (antibody, V domains shown) VH: QVQLQESGPGLVKPSGTLSLTCAVSGGSISSSNWWSWVRQPPGKGLEWIGELYHSGSTNYNPSLKSRVTISVDKSKNQFSLKLSSVTAADTAVYYCARVGPYYYDSSGYYNYFDYWGPGTLVTVSS VL: EIVLTQSPATLSLSPGERATLSCRASQSVSSYLAWYQQKPGQAPRLLIYDASNRATGIPARFSGSGSGTDFTLTISSLEPEDFAVYYCQQRSNWPPGITFGQGTRLEIK
1.14
